Tested on: HT-1080
experiment: Inhibition of human XBP1 splicing in human HT1080-CMV-XBP1-Luciferase cells assessed as luciferase signal by Promega Bright-Glo luciferase assay
Format: functional
measurement type: IC50
I'd appreciate it if you included the unit after the number.

Use these answered entries as a reference point.
{"columns": ["chemical string", "IC50"],
 "data": [
  ["COc1ccccc1S(=O)(=O)Nc1cc(C)c(Oc2ncccc2-c2ccnc(N[C@H]3CC[C@H](N)CC3)n2)c2ccccc12", "440 nM"],
  ["Cc1cc(Nc2nc3ccccc3[nH]2)c2ccccc2c1Oc1ncccc1-c1ccnc(N[C@H]2CC[C@H](N)CC2)n1", "33 nM"]
]}

Please look at the following compound next.
-- ask Reported IC50 for Cc1cc(NS(=O)(=O)c2ccccc2Cl)c2ccccc2c1Oc1ncccc1-c1ccnc(N[C@H]2CC[C@H](N)CC2)n1 : what is it?
-- reply 42 nM
